Target: H+/K+-ATPase (Sus scrofa, UniProt P19156)
Construct: reaction buffer solution (60 mmol/l Tris-HCl buffer solution, pH 7.4) containing hog gastric vesicle
Sequence (P19156 2-1034 limits assumed): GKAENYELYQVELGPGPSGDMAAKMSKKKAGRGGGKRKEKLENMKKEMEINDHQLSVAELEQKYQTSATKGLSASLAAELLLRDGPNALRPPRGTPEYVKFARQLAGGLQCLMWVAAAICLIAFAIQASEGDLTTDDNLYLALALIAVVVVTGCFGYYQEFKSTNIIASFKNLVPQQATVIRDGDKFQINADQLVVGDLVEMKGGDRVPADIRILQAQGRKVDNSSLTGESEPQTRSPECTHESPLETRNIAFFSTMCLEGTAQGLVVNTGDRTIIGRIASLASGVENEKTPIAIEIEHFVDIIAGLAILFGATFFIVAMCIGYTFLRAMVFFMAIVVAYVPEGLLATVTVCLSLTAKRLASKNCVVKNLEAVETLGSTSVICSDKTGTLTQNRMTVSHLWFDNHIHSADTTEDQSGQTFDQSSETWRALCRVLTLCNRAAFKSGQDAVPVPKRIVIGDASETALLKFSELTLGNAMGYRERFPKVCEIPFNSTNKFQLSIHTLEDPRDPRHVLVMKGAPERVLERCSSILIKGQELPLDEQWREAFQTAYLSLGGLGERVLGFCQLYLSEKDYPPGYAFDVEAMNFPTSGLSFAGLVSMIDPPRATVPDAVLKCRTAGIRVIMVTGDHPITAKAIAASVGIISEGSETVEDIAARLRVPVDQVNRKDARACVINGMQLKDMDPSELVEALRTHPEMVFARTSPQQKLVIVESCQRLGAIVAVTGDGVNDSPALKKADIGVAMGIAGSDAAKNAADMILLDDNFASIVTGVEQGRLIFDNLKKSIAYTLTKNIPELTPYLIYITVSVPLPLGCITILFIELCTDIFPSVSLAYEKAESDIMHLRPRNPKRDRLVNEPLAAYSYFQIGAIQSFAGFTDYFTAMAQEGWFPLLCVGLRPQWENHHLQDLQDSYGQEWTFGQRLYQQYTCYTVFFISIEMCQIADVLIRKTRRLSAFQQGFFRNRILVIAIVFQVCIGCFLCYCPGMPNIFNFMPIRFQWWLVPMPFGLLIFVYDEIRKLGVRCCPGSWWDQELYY
Sequence (P18434 whole entry partner): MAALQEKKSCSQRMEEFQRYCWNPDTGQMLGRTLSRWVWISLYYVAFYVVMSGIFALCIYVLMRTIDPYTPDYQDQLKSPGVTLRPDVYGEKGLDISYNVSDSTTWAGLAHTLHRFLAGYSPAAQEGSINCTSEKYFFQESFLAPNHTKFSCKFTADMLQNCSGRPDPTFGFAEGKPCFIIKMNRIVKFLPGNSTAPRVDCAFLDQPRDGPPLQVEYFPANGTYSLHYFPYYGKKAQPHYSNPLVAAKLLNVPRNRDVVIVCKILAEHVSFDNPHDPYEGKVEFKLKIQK
Assay: Inhibition of proton pump (H+/K+-ATPase) activity in hog gastric vesicles
Settings: K+ specific H+/K+-ATPase activity, pH 7.4, 37° C. for 40 minutes, malachite green
pIC50: −log10 of the molar value.
Measured Metric: pIC50

{"columns": ["Molecule", "Measured Metric", "Experimental Value"],
 "data": [
  ["CNC1CCc2c1cn(S(=O)(=O)c1cccc(F)c1)c2-c1ccc(C)cc1F (stereo not drawn)", "pIC50", 6.33],
  ["CNC1CCc2c1cn(C(=O)c1cccc(Cl)c1)c2-c1ccc(F)cc1F (stereo not drawn)", "pIC50", 4.52],
  ["CNC1CCc2c1cn(S(=O)(=O)c1cccc(Cl)c1)c2-c1ccc(C(F)(F)F)nc1 (stereo not drawn)", "pIC50", 5.60]
]}

A: CNC1CCCc2c1cn(S(=O)(=O)c1cccc(N(C)C)c1)c2-c1ccccc1F (stereo not drawn)
B: CNC1CCc2c1cn(S(=O)(=O)c1ccc(Oc3ccccc3)nc1)c2-c1ccccc1F (stereo not drawn)
Query: Hey, between A and B which has a smaller measured pIC50? Provide the label of your selected option as the answer.
Response: A

I: CNC1CCCc2c1cn(S(=O)(=O)c1cccnc1)c2-c1ccc(F)cc1F (stereo not drawn)
II: CNC1CCc2c1cn(S(=O)(=O)c1cccc(Cl)c1)c2-c1ccc(Cl)cc1Cl (stereo not drawn)
Query: Endpoint returns the identifier whose pIC50 is numerically larger, either I or II . Provide the label of your selected option as the answer.
Response: II
(II: 6.05, I: 5.30)

1: CNC1CCc2c1cn(Cc1cccc(F)c1)c2-c1ccccc1F (stereo not drawn)
2: CNC1CCc2c1cn(S(=O)(=O)c1cccnc1)c2-c1ccc(Cl)cc1F (stereo not drawn)
Query: Hey, between 1 and 2 which has a smaller measured pIC50? Provide the label of your selected option as the answer.
Response: 1
